- procedure_details: NCI Yeast Anticancer Drug Screen. Data for the CLN2oe strain (AID 163);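 further: 0% = growth of vehicle-only control cultures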
- condition_label: S. cerevisiae CLN2oe strain, at 1.2 µM
Compounds without any hit were thinned out: in the full panel of roughly 79,000, 15% have a hit. Activity calls are given as the source filed them. No stated cut-off is given here; in the data, active means growth inhibition above about 70%; inactive means the rest.
Write down one outcome, taken from yes (1) (active), no (0) (inactive)

INSERT INTO assay_data (molecule, group) VALUES
  ('CCOC(=O)C(Br)C(Br)c1ccccc1Cl (stereo not drawn)', 'no (0)');

Now for a further molecule.
Ask: # lookup: test call for O=C1/C(=C/c2ccccc2)CCCC1CN1CCCCC1 (stereo not drawn)
Reply: no (0)
